// reported protein stability index for each item listed
B1: APBB1IP (parent)
chain: LPLPPPPPEPLSQVSMWDQRWQDH

Variants of: B1
Experiment: protein stability index of a GFP-peptide fusion (GPS, HEK-293T) (PSI 1-6); higher = more stable;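 also: lentivirally expressed fusions sorted by FACS into six bins by GFP to DsRed ratio, PSI derived from sequencing read proportions per bin multiplied by bin number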
Details: c terminus: a fixed tail appended
Output spec: single numeric token, no unit.

{"columns": ["CHANGES", "METRIC_NAME", "VALUE_MEASURED"],
 "data": [
  ["P7K", "protein stability index", 3.97],
  ["P5W", "protein stability index", 3.4],
  ["P5M", "protein stability index", 3.84],
  ["P5K", "protein stability index", 3.28]
]}

Turning now to a further record.
For the variant "P7E" , give its measured protein stability index value.
4.25
